Data provenance: patent US12495798B2

Recorded Soil treatment phytotoxicity, Rice values for a group of compounds are listed next.
Test system: rice
Assay: Phytotoxicity test for field crops (soil treatment test)
Format: in vivo
Parameters: key: 0 (no harm); 9 (complete withered)
Conditions: 100 g ai/ha; Rice (10 days after treatment)
READOUT KIND: Soil treatment phytotoxicity, Rice

# SUBSTANCE SMILES, ASSAYED SYSTEM, NUMERIC VALUE
records = [
    ("CON(Cc1nnn(C)n1)Cc1nc(C(F)(F)F)ccc1C(=O)Nc1nnnn1C", "rice", 9),
    ("Cn1nnc(CSCc2nc(C(F)F)ccc2C(=O)Nc2nnnn2C)n1", "rice", 0),
    ("Cc1nc(COCc2nc(C(F)(F)F)ccc2C(=O)Nc2nnnn2C)nn1C", "rice", 0),
    ("Cn1nnc(COCc2nc(C(F)(F)C(F)(F)F)ccc2C(=O)Nc2nnnn2C)n1", "rice", 8),
]

----------
Tested on: cotton
Assay: Phytotoxicity test for field crops (soil treatment test)
Format: in vivo
Set-up: key: 0 (no harm); 9 (complete withered)
Settings: 100 g ai/ha; Cotton (10 days after treatment)
READOUT KIND: Soil treatment phytotoxicity, Cotton

# SUBSTANCE SMILES, RESULT
rows = [
    ("Cn1nnc(CSCc2nc(C(F)(F)F)ccc2C(=O)N(C(=O)c2ccccc2)c2nnnn2C)n1", 0),
    ("Cn1nnnc1COc1nc(C(F)(F)F)ccc1C(=O)Nc1nnnn1C", 2),
    ("Cn1cnc(COCc2nc(C(F)F)ccc2C(=O)Nc2nnnn2C)n1", 2),
    ("Cc1nc(COCc2nc(C(F)(F)F)ccc2C(=S)Nc2nnnn2C)nn1C", 0),
    ("Cn1nnnc1COc1nc(C(F)(F)F)ccc1C(=S)Nc1nnnn1C", 1),
    ("Cn1nnc(COCc2nc(C(F)(F)F)ccc2C(=S)Nc2nnnn2C)n1", 5),
    ("Cn1ncnc1COCc1nc(C(F)(F)F)ccc1C(=O)Nc1nnnn1C", 1),
    ("Cn1nnnc1COCc1nc(C(F)(F)F)ccc1C(=O)Nc1nnnn1C", 2),
]

----------
Recorded Foliar treatment phytotoxicity, Corn values for a group of compounds are listed next.
Test system: corn
Assay: Phytotoxicity test for upland field crops (foliar treatment test)
Format: in vivo
Settings: 100 g ai/ha, Corn (7 days after treatment)

# COMPOUND, Foliar treatment phytotoxicity, Corn
measured = [
    ("CCOC(=O)OC(C)n1nnn(C)c1=NC(=O)c1ccc(C(F)(F)F)nc1CSCc1nnn(C)n1 (centres unmarked)", 3),
    ("CCOC(=O)OC(C)N(C(=O)c1ccc(C(F)(F)F)nc1COCc1nnn(C)n1)c1nnnn1C (centres unmarked)", 0),
    ("COC(=O)OC(C)N(C(=O)c1ccc(C(F)(F)F)nc1COCc1ncn(C)n1)c1nnnn1C (centres unmarked)", 0),
    ("CON(Cc1nnn(C)n1)Cc1nc(C(F)(F)F)ccc1C(=O)Nc1nnnn1C", 2),
    ("C=CCn1nnnc1NC(=O)c1ccc(C(F)(F)F)nc1COCc1ncn(C)n1", 0),
]

----------
Recorded pest or weed control at 50 g/ha values for a group of compounds are listed next.
System: barnyard grass
Assay: Herbicidal activity test against upland field weeds (foliar treatment test)
Format: in vivo
Details: Echinochloa crus-galli, 50 g ai/ha, scale 0-100

# COMPOUND, ASSAYED SYSTEM, pest or weed control at 50 g/ha [%]
data = [
    ("CON(Cc1nnn(C)n1)Cc1nc(C(F)(F)F)ccc1C(=O)Nc1nnnn1C [Compound No. 2-97]", "barnyard grass", 95),
    ("Cn1nnnc1COc1nc(C(F)(F)F)ccc1C(=O)Nc1nnnn1C [Compound No. 1-1]", "barnyard grass", 98),
    ("C=CCn1nnnc1NC(=O)c1ccc(C(F)(F)F)nc1COCc1nnn(CC)n1 [Compound No. 2-90]", "barnyard grass", 98),
    ("Cn1nnnc1COc1nc(C(F)(F)F)ccc1C(=S)Nc1nnnn1C [Compound No. 1-43]", "barnyard grass", 95),
    ("CCn1nnnc1NC(=O)c1ccc(C(F)(F)F)nc1COCc1nc(C(F)(F)F)n(C)n1 [Compound No. 2-119]", "barnyard grass", 95),
    ("Cn1nnc(C[S+]([O-])Cc2nc(C(F)(F)F)ccc2C(=O)Nc2nnnn2C)n1 (stereo not drawn) [Compound No. 2-104]", "barnyard grass", 98),
    ("Cn1nc(COCc2nc(C(F)(F)F)ccc2C(=O)Nc2nnnn2C)nc1Br [Compound No. 2-136]", "barnyard grass", 70),
    ("CCON(Cc1nnn(C)n1)c1nc(C(F)(F)F)ccc1C(=O)Nc1nnnn1C [Compound No. 2-31]", "barnyard grass", 90),
    ("Cn1nnc(COCc2nc(C(F)F)ccc2C(=O)Nc2nnnn2C)n1 [Compound No. 2-84]", "barnyard grass", 95),
    ("Cn1nnnc1NC(=O)c1ccc(C(F)(F)F)nc1COCc1nc(OCC(F)(F)F)n(C)n1 [Compound No. 2-130]", "barnyard grass", 95),
    ("Cn1ncnc1COc1nc(C(F)(F)F)ccc1C(=O)Nc1nnnn1C [Compound No. 1-45]", "barnyard grass", 95),
    ("C=CCn1nnnc1NC(=O)c1ccc(C(F)(F)F)nc1COCc1nc(C(F)(F)F)n(C)n1 [Compound No. 2-121]", "barnyard grass", 20),
    ("CON(Cc1nnn(C)n1)c1nc(C(F)(F)F)ccc1C(=O)Nc1nnnn1C [Compound No. 2-30]", "barnyard grass", 95),
    ("CC(=O)N(C(=O)c1ccc(C(F)(F)F)nc1COCc1nnn(C)n1)c1nnnn1C [Compound No. 2-67]", "barnyard grass", 70),
    ("CCCn1nnnc1NC(=O)c1ccc(C(F)(F)F)nc1COCc1ncn(C)n1 [Compound No. 2-114]", "barnyard grass", 60),
    ("C=C(C)c1nc(COCc2nc(C(F)(F)F)ccc2C(=O)Nc2nnnn2C)nn1C [Compound No. 2-128]", "barnyard grass", 60),
    ("Cn1cnc(COc2nc(C(F)(F)F)ccc2C(=O)Nc2nnnn2C)n1 [Compound No. 2-43]", "barnyard grass", 60),
    ("Cn1nnc(CSCc2nc(C(F)(F)F)ccc2C(=O)Nc2nnnn2C)n1 [Compound No. 2-102]", "barnyard grass", 95),
    ("Cn1nnnc1COCc1nc(C(F)(F)F)ccc1C(=O)Nc1nnnn1C [Compound No. 1-61]", "barnyard grass", 95),
    ("COCn1nnc(COCc2nc(C(F)(F)F)ccc2C(=O)Nc2nnnn2C)n1 [Compound No. 2-91]", "barnyard grass", 80),
    ("Cc1nc(COCc2nc(C(F)(F)F)ccc2C(=O)Nc2nnnn2C)nn1C [Compound No. 2-116]", "barnyard grass", 98),
    ("COc1nc(COCc2nc(C(F)(F)F)ccc2C(=O)Nc2nnnn2C)nn1C [Compound No. 2-129]", "barnyard grass", 90),
    ("C=Cc1nc(COCc2nc(C(F)(F)F)ccc2C(=O)Nc2nnnn2C)nn1C [Compound No. 2-127]", "barnyard grass", 60),
    ("CN(Cc1nnn(C)n1)Cc1nc(C(F)(F)F)ccc1C(=O)Nc1nnnn1C [Compound No. 2-93]", "barnyard grass", 20),
    ("CCn1nnc(COCc2nc(C(F)(F)F)ccc2C(=O)Nc2nnnn2C)n1 [Compound No. 2-87]", "barnyard grass", 10),
    ("Cn1nnnc1NC(=O)c1ccc(C(F)(F)F)nc1COc1nnnn1C [Compound No. 1-115]", "barnyard grass", 30),
    ("CON(Cc1nnn(C)n1)Cc1nc(C(F)F)ccc1C(=O)Nc1nnnn1C [Compound No. 2-86]", "barnyard grass", 95),
    ("Cn1cnc(COCc2nc(C(F)(F)C(F)(F)F)ccc2C(=O)Nc2nnnn2C)n1 [Compound No. 2-83]", "barnyard grass", 90),
    ("Cn1ncnc1COCc1nc(C(F)(F)F)ccc1C(=O)Nc1nnnn1C [Compound No. 1-102]", "barnyard grass", 80),
    ("C=CCn1nnnc1NC(=O)c1ccc(C(F)(F)F)nc1COCc1nc(C(F)F)n(C)n1 [Compound No. 2-125]", "barnyard grass", 60),
    ("Cn1nnnc1NC(=O)c1ccc(C(F)(F)F)nc1COCc1nc(S(C)(=O)=O)n(C)n1 [Compound No. 2-132]", "barnyard grass", 98),
    ("Cn1nnc(COCc2nc(C(F)(F)Cl)ccc2C(=O)Nc2nnnn2C)n1 [Compound No. 2-78]", "barnyard grass", 70),
    ("CCCn1nnnc1NC(=O)c1ccc(C(F)(F)F)nc1COCc1nc(C(F)(F)F)n(C)n1 [Compound No. 2-120]", "barnyard grass", 80),
]
